pIC50: −log10 of the molar value.
Below are pIC50 values recorded for FLT3 (Homo sapiens, UniProt P36888).

compound-structure	pIC50
Fc1cnc(Nc2ccc(OCCN3CCCC3)cc2)nc1NCc1ccco1	7.66
Clc1cnc(Nc2ccc(OCCN3CCCC3)cc2)nc1NCc1ccco1	8.54

###

# subject-of-test: CYP 2C9 (Homo sapiens)
# Sequence (P11712 whole entry): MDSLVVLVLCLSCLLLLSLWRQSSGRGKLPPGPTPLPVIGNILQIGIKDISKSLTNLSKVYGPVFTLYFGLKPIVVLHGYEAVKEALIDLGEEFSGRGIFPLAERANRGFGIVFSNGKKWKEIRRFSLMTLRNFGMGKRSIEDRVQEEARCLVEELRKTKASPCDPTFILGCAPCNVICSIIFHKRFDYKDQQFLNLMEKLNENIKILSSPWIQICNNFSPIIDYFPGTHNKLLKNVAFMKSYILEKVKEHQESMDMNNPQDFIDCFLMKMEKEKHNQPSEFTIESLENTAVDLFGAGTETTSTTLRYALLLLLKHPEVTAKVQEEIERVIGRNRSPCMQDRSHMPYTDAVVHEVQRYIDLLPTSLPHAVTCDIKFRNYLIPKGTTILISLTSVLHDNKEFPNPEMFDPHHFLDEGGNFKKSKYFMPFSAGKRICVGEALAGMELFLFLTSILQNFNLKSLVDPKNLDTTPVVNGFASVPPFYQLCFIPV
# method-notes: CYP450 assay (luminescence)
# Assay type: in vitro ADME
# test-conditions: CYP 2C9 enzyme with substrate, compound at 10 μM, read-out: inhibitory activity against human CYP 2C9

compound-structure	inhibition at 20 min, 10 µM
Clc1cnc(Nc2ccc(OCCN3CCCC3)cc2)nc1NCc1ccco1	< 1%
